- testSystem: recombinant human KLK5 (Homo sapiens)
- Sequence (Q9Y337 23-293): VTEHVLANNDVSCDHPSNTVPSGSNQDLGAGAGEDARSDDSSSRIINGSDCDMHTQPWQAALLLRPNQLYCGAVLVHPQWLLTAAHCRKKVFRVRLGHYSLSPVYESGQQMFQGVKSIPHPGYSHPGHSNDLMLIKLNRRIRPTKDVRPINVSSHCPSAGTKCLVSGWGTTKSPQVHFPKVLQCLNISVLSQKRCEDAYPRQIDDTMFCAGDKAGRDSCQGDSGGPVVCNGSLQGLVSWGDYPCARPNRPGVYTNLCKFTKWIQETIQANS
- assayOverview: Kallikrein (KLK) 5 enzymatic assay (Boc-VPR-AMC fluorogenic substrate)
- experimentalContext: recombinant human KLK5 0.1 μg/well, Boc-VPR-AMC 100 μM, pH 7.5, room temperature, 1% DMSO; tested a minimum of three times
- Protocol: […] The reaction rate for enzyme alone was compared to the reaction rate of enzyme in the presence of compound and the percent inhibition was calculated as shown below: […]
pIC50: −log10 of the molar value.
Overview of reported pIC50 across a group of compounds:

- compound: "COCCN1CC(n2nc3ccc(-c4ccc5ccnc(N)c5c4)cc3c2COc2ccccc2CC(=O)O)C1 [Compound 122b]"
  testSystem: "recombinant human KLK5 (Homo sapiens)"
  pIC50: "5.00 to 6.00"
- compound: "Nc1nccc2ccc(-c3ccc4c(c3)c(COc3c(CC(=O)O)cccc3C(=O)O)nn4C3CCC3)cc12 [Compound 176a]"
  testSystem: "recombinant human KLK5 (Homo sapiens)"
  pIC50: "> 6.00"
- compound: "CC(C)(C)OC(=O)N1CC(Cn2nc3ccc(-c4ccc5ccnc(N)c5c4)cc3c2COc2ccccc2CC(=O)O)C1 [Compound 141b]"
  testSystem: "recombinant human KLK5 (Homo sapiens)"
  pIC50: "5.00 to 6.00"
- compound: "Nc1nccc2ccc(-c3ccc4c(c3)c(COc3ccccc3CC(=O)O)nn4C3CCCOC3)cc12 (stereo not drawn) [Compound 283g]"
  testSystem: "recombinant human KLK5 (Homo sapiens)"
  pIC50: "> 6.00"
- compound: "Nc1nccc2c(-c3ccc4c(c3)N(Cc3ccccc3CC(=O)O)CC4)cccc12 [Compound 285d]"
  testSystem: "recombinant human KLK5 (Homo sapiens)"
  pIC50: "5.00 to 6.00"
- compound: "Nc1nccc2ccc(-c3ccc4c(c3)c(COc3cccc(OC(F)(F)F)c3CC(=O)O)nn4C3CCOC3)cc12 (stereo not drawn) [Compound 288d]"
  testSystem: "recombinant human KLK5 (Homo sapiens)"
  pIC50: "> 6.00"
- compound: "Nc1nccc2c(-c3ccc4[nH]nc(COc5ccccc5CC(=O)O)c4c3)cccc12 [Compound 97a]"
  testSystem: "recombinant human KLK5 (Homo sapiens)"
  pIC50: "> 6.00"
- compound: "CCOC(=O)N1CC[C@@H](n2nc(COc3cccc(C)c3CC(=O)O)c3cc(-c4cccc5c(N)nccc45)ccc32)C1 [Compound 341e]"
  testSystem: "recombinant human KLK5 (Homo sapiens)"
  pIC50: "> 6.00"
- compound: "N#Cc1cccc(OCc2nn(C3CCOC3)c3ccc(-c4ccc5ccnc(N)c5c4)cc23)c1CC(=O)O (stereo not drawn) [Compound 292d]"
  testSystem: "recombinant human KLK5 (Homo sapiens)"
  pIC50: "5.00 to 6.00"
- compound: "Cc1cc(-c2ccc3ccnc(N)c3c2)cc2c(COc3ccccc3CC(=O)O)coc12 [Compound 233f]"
  testSystem: "recombinant human KLK5 (Homo sapiens)"
  pIC50: "5.00 to 6.00"
- compound: "CC(C)COC(=O)N1CCC2(CC1)CC(Oc1ccccc1CC(=O)O)c1cc(-c3ccc4ccnc(N)c4c3)ccc12 (stereo not drawn) [Compound 389c]"
  testSystem: "recombinant human KLK5 (Homo sapiens)"
  pIC50: "> 6.00"
- compound: "Nc1nccc2c(-c3ccc4c(c3)c(COc3ccccc3CC(=O)O)nn4C3CCCOC3)cccc12 (stereo not drawn) [Compound 284b]"
  testSystem: "recombinant human KLK5 (Homo sapiens)"
  pIC50: "> 6.00"
- compound: "CC(C)n1nc(COc2ccccc2CC(=O)O)c2cc(-c3cccc(-c4nn[nH]n4)c3)ccc21 [Compound 47c]"
  testSystem: "recombinant human KLK5 (Homo sapiens)"
  pIC50: "< 5.00"
- compound: "CC(C)OC(=O)N1CC[C@@H](n2nc(COc3ccccc3CC(=O)O)c3cc(-c4cccc5c(N)nccc45)ccc32)C1 [Compound 363b]"
  testSystem: "recombinant human KLK5 (Homo sapiens)"
  pIC50: "> 6.00"
- compound: "CC(C)n1nc(COc2ccccc2CC(=O)O)c2cc(-c3cccc4c(N)nccc34)ccc21 [Compound 40b]"
  testSystem: "recombinant human KLK5 (Homo sapiens)"
  pIC50: "> 6.00"
